Tested on: human Factor 7 mRNA
Test: Dose-dependent antisense inhibition of human Factor 7 in HepB3 cells, electroporation
Format: cell-based
Details: 25 μM, approx. 16 hours (Table 16, Example 8 confirmation)
Strand notation (5' to 3'): a small letter for the sugar, then the base; units joined by * are phosphorothioate-linked, units joined directly phosphodiester-linked; [ ] holds rarer units or linkages, { } end groups; capitals alone tell only the bases. e = 2'-O-(2-methoxyethyl) (MOE); [5mC] = 5-methylcytosine; d = 2'-deoxy (DNA)
Reported metric: percent inhibition of Factor 7 mRNA, relative to untreated control cells (%)
Give bare numbers, in %.

Example entries and their recorded answers appear below.
# Substance, Observed
data = [
    ("422142 (antisense eG*eA*eG*eT*eT*d[5mC]*dT*dG*d[5mC]*dA*dG*dG*dA*dG*d[5mC]*eG*eG*e[5mC]*e[5mC]*eT) [compound 422142]", 67),
    ("422150 (antisense eG*e[5mC]*eA*dT*dG*dG*dT*dG*dA*dT*dG*d[5mC]*dT*dT*d[5mC]*dT*dG*eA*eA*eT) [compound 422150]", 67),
    ("422086 (antisense eT*eG*e[5mC]*eA*eT*dG*dG*dT*dG*dA*dT*dG*d[5mC]*dT*dT*e[5mC]*eT*eG*eA*eA) [compound 422086]", 82),
]

Below is a list of substances. For each, state its recorded percent inhibition of Factor 7 mRNA, relative to untreated control cells.
1. 407935 (antisense eA*eT*eG*e[5mC]*eA*dT*dG*dG*dT*dG*dA*dT*dG*d[5mC]*dT*eT*e[5mC]*eT*eG*eA) [compound 407935]
2. 422292 (antisense eG*eT*dT*d[5mC]*dT*dG*d[5mC]*dA*dG*dG*dA*dG*d[5mC]*dG*dG*e[5mC]*e[5mC]*eT*eA*eA) [compound 422292]
3. 422130 (antisense eG*e[5mC]*e[5mC]*eT*eG*dA*dG*dG*d[5mC]*d[5mC]*dA*dG*d[5mC]*dA*dG*eA*eT*e[5mC]*eA*e[5mC]) [compound 422130]

A:
90
75
68
